- target_desc: human recombinant BTK C481S protein (Homo sapiens, UniProt Q06187, C481S)
- Sequence (Q06187 whole entry C481S): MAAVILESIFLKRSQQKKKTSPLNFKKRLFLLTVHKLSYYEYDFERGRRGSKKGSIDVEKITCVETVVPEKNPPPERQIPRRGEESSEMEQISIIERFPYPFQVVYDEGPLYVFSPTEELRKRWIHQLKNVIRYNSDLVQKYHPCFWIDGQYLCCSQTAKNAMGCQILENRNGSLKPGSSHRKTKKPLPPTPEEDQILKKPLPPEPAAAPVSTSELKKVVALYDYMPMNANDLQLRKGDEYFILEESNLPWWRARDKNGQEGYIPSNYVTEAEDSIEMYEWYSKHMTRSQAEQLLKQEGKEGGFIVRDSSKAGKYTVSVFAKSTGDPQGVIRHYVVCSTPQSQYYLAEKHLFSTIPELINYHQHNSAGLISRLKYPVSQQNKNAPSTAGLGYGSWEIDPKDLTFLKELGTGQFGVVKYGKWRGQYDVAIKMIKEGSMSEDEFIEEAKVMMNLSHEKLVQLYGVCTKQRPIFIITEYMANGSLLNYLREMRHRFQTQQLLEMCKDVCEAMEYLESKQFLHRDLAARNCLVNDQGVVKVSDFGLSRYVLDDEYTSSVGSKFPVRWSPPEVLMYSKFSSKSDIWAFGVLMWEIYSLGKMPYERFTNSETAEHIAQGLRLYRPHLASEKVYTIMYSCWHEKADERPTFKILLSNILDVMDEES
- procedure_details: BTK C481S activity inhibition assay (HTRF in vitro kinase assay)
- condition_parameters: 35 μM ATP, 1.5 ng/μL BTK C481S
value_kind: IC50 (nM)

{"molecule_smiles": "COc1ccc(F)cc1C(=O)NCc1ccc(-c2nn(C3CCOCC3)c3ccnc(N)c23)cc1", "readout_unit": "nM", "result": 3.5}
{"molecule_smiles": "COc1ccc(F)cc1C(=O)NCc1ccc(-c2nc([C@H]3CC[C@H](C(=O)O)CC3)n3ncnc(N)c23)cc1", "readout_unit": "nM", "result": 1.1}
{"molecule_smiles": "COC(=O)C12CC(c3nc(-c4ccc(CNC(=O)c5cc(F)ccc5OC)cc4)c4c(N)ncnn34)(C1)C2", "readout_unit": "nM", "result": 2.1}
{"molecule_smiles": "COc1ccc(F)cc1C(=O)NCc1ccc(-c2nc(C34CCC(CO)(CC3)CC4)n3ccnc(N)c23)cc1", "readout_unit": "nM", "result": 1.5}

(1) COc1ccc(F)cc1C(=O)NCc1ccc(-c2nc(C34CCC(C(=O)N5CCOCC5)(CC3)CC4)n3ccnc(N)c23)cc1
(2) COc1ccc(F)cc1C(=O)NCc1ccc(-c2nc([C@H]3CC[C@H](CO)CC3)n3ncnc(N)c23)cc1
(3) COc1ccc(F)cc1C(=O)NCc1ccc(-c2nc([C@H]3CC[C@H](C(=O)O)CC3)n3ccnc(N)c23)cc1
Reorder the items by IC50, least to greatest. Order the labels as requested and list them.
3, 1, 2

Reference source for all entries: patent US20230192691A1
